System: HEK-293T
experiment.notes: Multiplex assay against HEK293T
Type: toxicity, cell-based
measurement.parameters: human, 24 h, 10 µM, compound concentration 10 uM, replicate 1
Record form. Attribute: Population Normal (%). Fill in for each entry.
One number for each entry, in %.

For each of the molecules below, state Population Normal (%).
1. Cc1cc(C)c(S(=O)(=O)N(Cc2ccc(-c3cccc(S(C)(=O)=O)c3)cc2)Cc2ccc(C(F)(F)F)o2)c(C)c1
2. COc1cc2ncnc(Nc3ccc(F)c(Cl)c3)c2cc1NC(=O)/C=C/CN1CCCCC1 [DACOMITINIB ANHYDROUS]
3. COc1cc(N2CCN(C)CC2)ccc1Nc1ncc2c(n1)N(C)c1ccccc1C(=O)N2C
4. C=CCn1c(=O)c2cnc(Nc3ccc(N4CCN(C)CC4)cc3)nc2n1-c1cccc(C(C)(C)O)n1
5. CCn1c(=O)c(-c2ccc(-c3cncs3)cc2Cl)cc2cnc(Nc3ccc(N4CCN(C)CC4)cc3)nc21
6. CCN1CCN(Cc2ccc(Nc3ncc(F)c(-c4cc(F)c5nc(C)n(C(C)C)c5c4)n3)nc2)CC1.CS(=O)(=O)O

Out:
84
94
89
81
28
76
